# system_tested: μ2^PIP-Core (AP2 core with the μ2 mutations 5K>E and KRR>E combined) (UniProt P63010 1-592; P84092 1-236; P84092 237-435; P62743 1-142)
# run_description: SPR; liposomes with 10% PtdIns4,5P2 + 1% TGN38
Where no end group is shown, it is not given here. The star is where a group is joined. MPB‑DPPE = 1,2-dipalmitoyl-sn-glycero-3-phosphoethanolamine-N-[4-(p-maleimidophenyl)butyramide], CCCCCCCCCCCCCCCC(=O)OC[C@H](COP(=O)(O)OCCNC(=O)CCCc1ccc(N2C(=O)CC(*)C2=O)cc1)OC(=O)CCCCCCCCCCCCCCC
measure_name: Kd (µM)
Report only the number, with the unit µM understood.

What does the record list as Kd for C(MPB‑DPPE)KVTRRPKASDYQRL [lipid-linked TGN38 sorting motif peptide (CKVTRRPKASDYQRL) displayed in liposomes] ? 6.2
